Test: chemical genetic growth profiling, strain panel (AID 1159580);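 also: tested at 20 µM; growth read once vehicle control cultures reached saturation at 30 °C; 1 = growth at the plate median or of vehicle wells; lower values mean less growth of the strain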
Conditions: S. cerevisiae deletion strains, growth OD, locus YOR144C, strain elg1
Screen size: about 5,500 compounds; about 2,000 (36%) were called active. Inconclusive results (about 18%) are left out. Rule as the data show it: active = normalized growth mostly below about 0.91 (no sharp cut-off); inconclusive = no clear call, values can overlap the other calls; inactive = mostly above about 0.92. The list shows a part of the results.
Outcome field: choose from y for active, n for inactive

**Q:** Returns: the outcome recorded for Fc1ccc(C(c2ccccc2)(c2ccccc2F)n2ccnc2)cc1 (configuration not stated) in this assay.
**A:** y

**Q:** I would be grateful if you could indicate the recorded call for CC(=O)O[C@H]1CC[C@@]2(C)C(CC[C@]3(C)C2C(=O)C=C2C4[C@@H](C)[C@H](C)CC[C@]4(C(=O)O)CC[C@]23C)C1(C)C (some centres not stated) .
**A:** n

**Q:** Each compound tested received a call. Report the one for Nc1c2ccccc2nc2ccccc12 .
**A:** y

**Q:** Can you look up the reported call for C[C@@H]1OC(O[C@H]2C(O[C@H]3CC[C@@]4(C)C(CC[C@]5(C)C4CC=C4C6CC(C)(C)CC[C@]6(C(=O)O)CC[C@]45C)[C@]3(C)CO)OC[C@H](O)[C@@H]2O)[C@H](O)[C@H](O)[C@H]1O (some centres not stated) for me?
**A:** y

**Q:** How was CC(=O)/C=C\[C@@H]1[C@@]2(C)CCCC(C)(C)C2CC[C@@]1(C)O (some centres not stated) classified in this test?
**A:** n

----------
Each entry below lists one item and its recorded normalized growth value.
Test: chemical genetic growth profiling, strain panel (AID 1159580)
Conditions: S. cerevisiae deletion strains, growth OD, locus YPL106C, strain sse1, stronger effect = lower value
Out of some 5,500 compounds screened, about 2,000 (36%) were called active. Inconclusive results (about 18%) are left out. The list shows a part of the results. Where a SMILES comes first, the peptide text is derived from it. Bridges are numbered along the chain shown (N, C = ends). [ ]: non-standard residue; d: D form. The star is where a group is joined. ξ: configuration not given here. ξDab(CH2SO3H) = NC(CCNCS(=O)(=O)O)C(=O)O; Heptanoyl(6-Me) = CC(C)CCCCC(=O)*; Dab = NCC[CH](N)C(=O)O

Molecule	Reported Metric	Result
CCC(C)C1NC(=O)C(CCNCS(=O)(=O)O)NC(=O)C(NC(=O)C(CCNCS(=O)(=O)O)NC(=O)C(NC(=O)C(CCNCS(=O)(=O)O)NC(=O)CCCCC(C)C)C(C)O)CCNC(=O)C(C(C)O)NC(=O)C(CCNCS(=O)(=O)O)NC(=O)C(CCNCS(=O)(=O)O)NC(=O)C(C(C)CC)NC1=O (configuration not stated) ({Heptanoyl(6-Me)}-[ξDab(CH2SO3H)]T[ξDab(CH2SO3H)][Dab][ξDab(CH2SO3H)]II[ξDab(CH2SO3H)][ξDab(CH2SO3H)]T; lactam 4-C; configuration not given here)	normalized growth	0.941 (inactive)

Next molecule, normalized growth to be filled in.
Query Cc1ccc(N=CN(C)C=Nc2ccc(C)cc2C)c(C)c1 yields normalized growth of 0.948 (inactive)

----------
Test: chemical genetic growth profiling, strain panel (AID 1159580)
Conditions: S. cerevisiae deletion strains, growth OD, locus YAL021C, strain ccr4, stronger effect = lower value
In all, about 5,500 compounds went through this assay and about 2,000 (36%) were called active. Another 18% or so got no clear call; they are omitted. The list shows a part of the results.
Reported normalized growth values for a set of molecules

Here is how some molecules turned out for normalized growth.
Molecule	normalized growth
Cc1cc(O)cc(=O)o1	0.991 (inactive)
COc1cccc2c1C(=O)c1c(O)c3c(c(O)c1C2=O)C[C@@](O)(C(C)=O)C[C@@H]3O[C@H]1C[C@H](N)[C@H](O)[C@H](C)O1	0.872 (active)
COC(=O)Nc1nc2ccc(S(=O)c3ccccc3)cc2[nH]1 (stereo not drawn)	1.01 (inactive)
CC1(C)CCC2(C(=O)O)CCC3(C)C(=CCC4C5(C)CCC(O)C(C)(C)C5C(O)CC43C)C2C1 (stereo not drawn)	1 (inactive)
CC(CC(=O)C1OC1(C)C)C1C(=O)CC2(C)C3=CCC4C(C)(C)C(OC5OCC(O)C(O)C5O)CCC45CC35C(O)CC12C (stereo not drawn)	1.03 (inactive)

Per the record, CC(CC(=O)C(O)C(C)(C)O)C1C(=O)CC2(C)C3=CCC4C(C)(C)C(OC5OCC(O)C(O)C5O)CCC45CC35C(O)CC12C (stereo not drawn) has normalized growth of 1.01 (inactive)

Sample C[C@@H]1CC[C@]2(C(=O)O)CC[C@]3(C)C(=CCC4[C@@]5(C)CC[C@H](O)C(C)(C)C5CC[C@]43C)C2[C@H]1C (stereo partly drawn) ; normalized growth observed: 0.995 (inactive)

Note to self: normalized growth recorded for C/C=C(/C)C(=O)O[C@@H]1[C@H](OC(C)=O)[C@@]2(CO)C(CC1(C)C)C1=CCC3[C@@]4(C)CC[C@H](O[C@@H]5O[C@H](C(=O)O)[C@@H](O[C@@H]6O[C@H](CO)[C@@H](O)[C@H](O)[C@H]6O)[C@H](O)[C@H]5O[C@@H]5O[C@H](CO)[C@@H](O)[C@H](O)[C@H]5O)[C@](C)(CO)C4CC[C@@]3(C)[C@]1(C)C[C@H]2O (stereo partly drawn) was 1.01 (inactive)

Form field normalized growth, entry Cc1cc(O)cc(O)c1C(=O)O : 0.972 (inactive)

----------
Quick list: normalized growth per entry.
Assay: chemical genetic growth profiling, strain panel (AID 1159580);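 also: tested at 20 µM; growth read once vehicle control cultures reached saturation at 30 °C; 1 = growth at the plate median or of vehicle wells; lower values mean less growth of the strain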
Conditions: S. cerevisiae deletion strains, growth OD, locus YJL187C, strain SWE1 (second series), stronger effect = lower value
About 2,000 (36%) of roughly 5,500 compounds were called active. Roughly 18% stayed inconclusive and do not appear here. The list shows a part of the results.
Quick one: just the number, no unit, thanks!

>>> print(df.to_string())
                                   compound  result_number
0   COC(=O)Nc1nc2ccc(C(=O)c3ccccc3)cc2[nH]1           1.01
1  CC(=O)NC(C(=O)O)C(C)(C)SN=O (configuration not stated)              1

Documented normalized growth of Nc1ccc(S(=O)(=O)Nc2ccnn2-c2ccccc2)cc1 : 1.02

Noted for NC(N)=N/N=C/c1c(Cl)cccc1Cl : its normalized growth reads 1.02

For reference, reported normalized growth for O=C1C(O)=C(O)C(=O)C(O)=C1O stands at 0.961

----------
Assay: chemical genetic growth profiling, strain panel (AID 1159580);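 also: tested at 20 µM; growth read once vehicle control cultures reached saturation at 30 °C; 1 = growth at the plate median or of vehicle wells; lower values mean less growth of the strain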
Settings: S. cerevisiae deletion strains, growth OD, locus YNL250W, strain rad50
About 2,000 (36%) of roughly 5,500 compounds were called active. Another 18% or so got no clear call; they are omitted. Rule as the data show it: active = normalized growth mostly below about 0.91 (no sharp cut-off); inconclusive = no clear call, values can overlap the other calls; inactive = mostly above about 0.92. Some of the results follow.
Bench note: report the call from t = active, f = inactive

Study these solved cases before continuing.
>>> df
                                   molecule  label_class
0  CC(C)CC(N(C)C)C1(c2ccc(Cl)cc2)CCC1 (stereo unspecified)            f
1  C[C@@H]1CC[C@H]2[C@@H](C)C(O)O[C@@H]3O[C@@]4(C)CC[C@@H]1[C@]32OO4 (stereo partly specified)            t
2  C[C@@H]1C(=O)O[C@H]2[C@H]1CC[C@@]1(C)C=CC(=O)[C@@]3(C)O[C@@]213            f
3                          Cc1cc(O)cc(=O)o1            f

**Q:** I'd appreciate the recorded outcome for O=C(COc1ccc(Cl)cc1)N1CCN(Cc2ccc3c(c2)OCO3)CC1 from this test.
**A:** f

**Q:** Returns: the outcome recorded for C[C@@H]1CC[C@H]2[C@@H](C)C(=O)O[C@@H]3O[C@@]4(C)CC[C@@H]1[C@]32OO4 in this assay.
**A:** t

**Q:** Record lookup: outcome of this test for Cc1cc(O)ccc1Cl ?
**A:** f

**Q:** Test call, this molecule: Cc1cc(O)cc(C)c1Cl
**A:** f

**Q:** Please indicate how the test categorized COc1ccc2c(c1)c(CC(=O)OCC(=O)O)c(C)n2C(=O)c1ccc(Cl)cc1 .
**A:** f

**Q:** Record lookup: outcome of this test for CCCCCCCCCCCC[C@H](C(=O)O)[C@@H](C)C(=O)O ?
**A:** f

**Q:** Please indicate how the test categorized COc1c(CC(=O)c2cc3c(cc2O)OC(C)(C)C(O)C3)ccc2c1C=CC(C)(C)O2 (stereo unspecified) .
**A:** f

----------
Experiment: chemical genetic growth profiling, strain panel (AID 1159580);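 also: tested at 20 µM; growth read once vehicle control cultures reached saturation at 30 °C; 1 = growth at the plate median or of vehicle wells; lower values mean less growth of the strain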
Conditions: S. cerevisiae deletion strains, growth OD, locus YNL307C, strain MCK1, stronger effect = lower value
The campaign covered roughly 5,500 compounds. About 2,000 (36%) were called active. Another 18% or so got no clear call; they are omitted. This is one part of the list.
// reported normalized growth for each item listed
Lab note: write the figure by itself, no unit.

Briefly, normalized growth measured for C[C@@H]1OC(O[C@H]2[C@H](O)[C@@H](O)[C@H](OC[C@H]3O[C@@H](OC(=O)[C@]45CCC(C)(C)CC4C4=CCC6[C@@]7(C)CC[C@H](OC8OC[C@H](O)[C@H](O)[C@H]8OC8O[C@@H](C)[C@H](O)[C@@H](O)[C@H]8O)[C@@](C)(CO)C7CC[C@@]6(C)[C@]4(C)CC5)[C@H](O)[C@@H](O)[C@@H]3O)O[C@@H]2CO)[C@H](O)[C@H](O)[C@H]1O (some centres not stated) : 0.989

The recorded normalized growth for entry Nc1ccc(S(=O)(=O)Nc2ccnn2-c2ccccc2)cc1 equals 0.99
